- Test system: HIV-1 G140S/Q148R
- Format: cell-based
- measurementSetup: MT2 cells; mean EC50 mutant / mean EC50 wt
Known Resistance fold shift G140S/Q148R vs. wild type of a selection of molecules
Reply numerically in fold shift, unit not repeated.

Consider the following illustrative entries.
CCN1C(=O)c2c(O)c(=O)c(C(=O)NCc3ccc(F)c(Cl)c3F)cn2[C@H]2CCOC[C@H]21; 1.8
CCN1C(=O)c2c(O)c(=O)c(C(=O)NCc3c(F)cc(F)cc3F)cn2[C@H]2CCOC[C@H]21; 2.5
CCN1C(=O)c2c(O)c(=O)c(C(=O)NCc3c(F)cc(F)cc3F)cn2[C@H]2COC[C@H]21; 5.9
CCN1C(=O)c2c(O)c(=O)c(C(=O)NCc3ccc(F)c(Cl)c3F)cn2[C@H]2CCO[C@H]21 [Compound 25b]; 1.9
CCN1C(=O)c2c(O)c(=O)c(C(=O)NCc3ccc(F)cc3F)cn2[C@H]2CCOC[C@H]21; 2.9

Next up:
## Input # query: Resistance fold shift G140S/Q148R vs. wild type | item C[C@@H]1CCO[C@H]2Cn3cc(C(=O)NCc4ccc(F)cc4F)c(=O)c(O)c3C(=O)N12 [Dolutegravir, reference compound] | system: HIV-1 G140S/Q148R
## Output 3.7

---

- Test system: HIV-1 N155H/Q148R
- Type: cell-based
- measurementSetup: MT2 cells; mean EC50 mutant / mean EC50 wt
Returns one of t or f; t when Resistance fold shift N155H/Q148R vs. wild type is >= 2 fold shift.

CCN1C(=O)c2c(O)c(=O)c(C(=O)NCc3ccc(F)cc3F)cn2[C@H]2CCOC[C@H]21; f
CCN1C(=O)c2c(O)c(=O)c(C(=O)NCc3c(F)cc(F)cc3F)cn2[C@H]2CCOC[C@H]21; t
CCN1C(=O)c2c(O)c(=O)c(C(=O)NCc3ccc(F)c(Cl)c3F)cn2[C@H]2CCOC[C@H]21; t

## Input Could you tell me if the measured Resistance fold shift N155H/Q148R vs. wild type of CCN1C(=O)c2c(O)c(=O)c(C(=O)NCc3ccc(F)c(Cl)c3F)cn2[C@H]2CCO[C@H]21 [Compound 25b] reaches 2 fold shift or more?
## Output t

## Input Could you tell me if the measured Resistance fold shift N155H/Q148R vs. wild type of `CCN1C(=O)c2c(O)c(=O)c(C(=O)NCc3c(F)cc(F)cc3F)cn2[C@H]2COC[C@H]21` reaches 2 fold shift or more?
## Output t

## Input Could you tell me if the measured Resistance fold shift N155H/Q148R vs. wild type of C[C@@H]1CCO[C@H]2Cn3cc(C(=O)NCc4ccc(F)cc4F)c(=O)c(O)c3C(=O)N12 [Dolutegravir, reference compound] reaches 2 fold shift or more?
## Output t

---

- assayTarget: PXR (NR1I2) (Homo sapiens (Human))
- runDescription: Human PXR activation assay (luciferase reporter, DPX2 cells)
- Format: cell-based
- measurementSetup: human; 15 uM; DPX2 cells; % Emax relative to rifampicin, adjusted for DMSO background; read-out: PXR % inh at 15 uM (adjusted)
Known inhibition at 24 h, 15 µM of a selection of compounds
Reply numerically in %, unit not repeated.

CCN1C(=O)c2c(O)c(=O)c(C(=O)NCc3ccc(F)c(Cl)c3F)cn2[C@H]2CCOC[C@H]21 [Compound 39]; 5
CN1C(=O)c2c(O)c(=O)c(C(=O)NCc3c(F)cc(F)cc3F)cn2[C@H]2C[C@@H]3C[C@@H]3[C@H]21 [Compound 51]; 33
CN1C(=O)c2c(O)c(=O)c(C(=O)NCc3ccc(F)c(Cl)c3F)cn2[C@@H]2CCOC[C@H]21 [Compound 11]; 4
O=C(NCc1c(F)cc(F)cc1F)c1cn2c(c(O)c1=O)C(=O)N(CC(F)(F)F)[C@@H]1COCC[C@H]12 [Compound 35]; 6
O=C(NCc1c(F)cc(F)cc1F)c1cn2c(c(O)c1=O)C(=O)N(CC(F)(F)F)[C@H]1COCC[C@H]12 [Compound 31]; 1

## Input Data request, read-out inhibition at 24 h, 15 µM, for CN1C(=O)c2c(O)c(=O)c(C(=O)NCc3c(F)cc(F)cc3F)cn2[C@@H]2COC[C@H]21 [Compound 46]
## Output 8

## Input Data request, read-out inhibition at 24 h, 15 µM, for O=C(NCc1ccc(F)c(Cl)c1F)c1cn2c(c(O)c1=O)C(=O)N(CC(F)(F)F)[C@@H]1COCC[C@@H]12 [Compound 50]
## Output 1

## Input Data request, read-out inhibition at 24 h, 15 µM, for CCN1C(=O)c2c(O)c(=O)c(C(=O)NCc3c(F)cc(F)cc3F)cn2[C@@H]2CCO[C@@H]21 [Compound 26a]
## Output 15

---

- runDescription: Plasma protein binding (equilibrium dialysis)
- Assay type: in vitro ADME
- measurementSetup: human, plasma (sodium EDTA) versus buffer; 2 μM in plasma vs. buffer, 24 hours at 37° C.; read-out: % Free HP/Buffer
property: fraction unbound at 24 h, 2 µM
Give a plain numeric answer without units written out.

Consider the following illustrative entries.
CCN1C(=O)c2c(O)c(=O)c(C(=O)NCc3c(F)cc(F)cc3F)cn2[C@H]2COC[C@H]21; 0.068
CCN1C(=O)c2c(O)c(=O)c(C(=O)NCc3c(F)cc(F)cc3F)cn2[C@H]2CCOC[C@H]21; 0.056

Next up:
## Input Data request, read-out fraction unbound at 24 h, 2 µM, for `CCN1C(=O)c2c(O)c(=O)c(C(=O)NCc3ccc(F)cc3F)cn2[C@H]2CCOC[C@H]21`
## Output 0.057

---

- assayTarget: PXR (NR1I2) (Homo sapiens (Human), UniProt O75469)
- Sequence (O75469 whole entry): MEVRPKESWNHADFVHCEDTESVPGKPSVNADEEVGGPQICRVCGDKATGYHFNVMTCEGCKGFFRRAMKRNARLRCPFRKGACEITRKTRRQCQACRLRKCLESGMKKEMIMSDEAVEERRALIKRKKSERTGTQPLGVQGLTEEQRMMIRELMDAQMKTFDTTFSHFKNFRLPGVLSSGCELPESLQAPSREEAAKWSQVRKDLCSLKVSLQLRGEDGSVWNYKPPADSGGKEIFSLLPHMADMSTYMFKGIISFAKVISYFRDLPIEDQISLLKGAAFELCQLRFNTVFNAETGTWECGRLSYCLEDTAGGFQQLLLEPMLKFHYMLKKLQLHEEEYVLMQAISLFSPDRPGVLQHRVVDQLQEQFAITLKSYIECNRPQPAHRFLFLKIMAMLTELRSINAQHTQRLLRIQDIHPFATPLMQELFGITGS
- runDescription: Human PXR activation assay (luciferase reporter, DPX2 cells)
- Assay type: cell-based
- measurementSetup: human; 15 uM; DPX2 cells; % Emax relative to rifampicin, adjusted for DMSO background; read-out: PXR % inh at 15 uM (adjusted)
Known inhibition at 24 h, 15 µM of a selection of compounds
Reply numerically in %, unit not repeated.

CN1C(=O)c2c(O)c(=O)c(C(=O)NCc3c(F)cc(F)cc3F)cn2[C@H]2CCOC[C@H]21; 1
CCN1C(=O)c2c(O)c(=O)c(C(=O)NCc3cccc(Cl)c3F)cn2[C@H]2CCOC[C@H]21; 7

Next up:
## Input # query: inhibition at 24 h, 15 µM | item `O=C(NCc1c(F)cc(F)cc1F)c1cn2c(c(O)c1=O)C(=O)N[C@@H]1CCCC[C@@H]12` | system: PXR (NR1I2) (Homo sapiens (Human), UniProt O75469)
## Output 2
